system: glycogen synthase kinase-3 (GSK3A per assay name; protocol says GSK3B); assay: GSK3 binders on small-molecule microarrays, primary screen, biochemical, small-molecule microarray, 635 nm fluorescence, GSK3A (AID 1103); details: small-molecule microarray binding, fluorescence 635 nm; higher = more signal; further: the record names both GSK3A and GSK3B
# Lookup of reported composite z-score keyed by entry
quantityKind: composite z-score

compound	quantityKind	readoutNumber
CC(C)(C)OC(=O)CC[C@]1(C(=O)NCC(O)CO)N=C(c2ccc(OCCCO)cc2)O[C@H]1c1ccccc1 (stereo not given in full)	composite z-score	0.206
[N-]=[N+]=NCc1ccccc1C[C@@]1(C(=O)N2CCCCC2)N=C(c2ccc(OCCCO)cc2)O[C@@H]1c1ccccc1	composite z-score	0.0635
CN(C)CCCNC(=O)[C@@H]1c2ccccc2C(=O)N(Cc2ccccc2Cl)[C@H]1c1ccc(CO)cc1	composite z-score	0.333
CCOC(=O)C[C@H]1[C@H](OC(=O)c2cc3ccccc3oc2=O)[C@@H](NC(=O)c2ccc(-c3ccccc3)cc2)c2cc(OCCCO)ccc2N1C(=O)c1ccccc1	composite z-score	1.04
O=C1OCC=C[C@H]2OC34C=CCN(Cn5nnc6ccccc65)C(=O)[C@H]3N(CCCO)C(=O)[C@@H]4[C@@H]12 (stereo not given in full)	composite z-score	-1.08
COCCOC(=O)N1C(=O)[C@@]2(c3cc(C#CCNC(N)=O)ccc31)[C@H](C(=O)N1CCc3cc(OC)c(OC)cc3C1)[C@H]1C(=O)O[C@H](c3ccccc3)[C@H](c3ccccc3)N1[C@@H]2c1ccccc1OCCO	composite z-score	1.14
Cc1ccc(S[C@]2(C(=O)O)CC(=O)N(Cc3ccccc3Cl)[C@@H]2c2ccc(CO)cc2I)cc1	composite z-score	0.202
[N-]=[N+]=Nc1ccccc1C[C@]1(C(N)=O)N=C(c2ccc(OCCCO)cc2)O[C@H]1c1ccccc1N=[N+]=[N-]	composite z-score	0.966
CC(CO)N1C(=O)[C@@H]2[C@H]3C(=O)OCC=C[C@H]3OC23C=CCN(Cc2ccccc2)C(=O)[C@@H]13 (stereo not given in full)	composite z-score	-1.23
NC(=O)NCC#Cc1ccc2c(c1)[C@]1(C(=O)N2)[C@H](C(=O)O)[C@H]2C(=O)O[C@H](c3ccccc3)[C@H](c3ccccc3)N2[C@@H]1c1ccc(OCCO)cc1	composite z-score	-0.547
CCCCC=C[C@@H](NC(=O)c1ccc(-c2ccccc2)cc1)c1ccccc1	composite z-score	1.08
C=CCNC(=O)[C@H]1[C@@H]2C(=O)O[C@@H](c3ccccc3)[C@@H](c3ccccc3)N2[C@@H](c2ccc(O)cc2)[C@]12C(=O)N(C(=O)OCCOC)c1ccccc12	composite z-score	0.226
CCOC(=O)C1=CC[C@@H](c2cccc(Cl)c2)N(S(=O)(=O)c2ccc(C)cc2)C1	composite z-score	0.0076
C=C(COC)/C(=C/C[C@H](OC(=O)c1ccncc1)c1ccccc1OCCO)c1cnc2ccccc2c1	composite z-score	1.32
COC(=O)c1c(CC[C@@H](CO)NC(=O)N2CCC[C@H]2Cn2cc(Cc3ccccc3)nn2)oc(C(C)=O)c1C(=O)OC	composite z-score	0.0908
C=C(C)C1CCC(C(O)C2C=CC3C(=O)N(C)C(=O)C3N2N2CCCCC2)CC1 (stereo not given)	composite z-score	1.3
COc1ccc([Si](C)(C)[C@@H]2[C@@H](CC(=O)N(CCO)Cc3ccccc3)O[C@]3(C(=O)N(Cc4cccc(N5C(=O)c6cccc7cccc5c67)c4)c4ccccc43)[C@H]2C)cc1	composite z-score	-0.727
[N-]=[N+]=NCc1ccccc1[C@H]1OC(c2ccc(OCCCO)cc2)=N[C@@]1(CCS(=O)(=O)c1ccccc1)C(=O)N1CCCCC1	composite z-score	1.28
Cc1ccc(S[C@]2(C(=O)NCCCN(C)C)CC(=O)N(C3CCCCC3)[C@@H]2c2ccc(CO)cc2)cc1	composite z-score	-0.464
O=C(N1CCCCC1)[C@@]1(CCS(=O)(=O)c2ccccc2)COC(c2ccc(OCCCO)cc2)=N1	composite z-score	1.02
